- Read-out: Paternally Expressed 10 (PEG10), PEG10 (gene 23089)
- protocol-description: LTEA_HepaRG_PEG10: Life Technologies and Expression Analysis (LTEA) Assay for Paternally Expressed 10 (PEG10) using HepaRG (AID 2283520)
- run-parameters: mRNA level, 48 h; actives raise or lower the signal
Active and inactive are the calls of the source. How the source made its calls: active means hit-call score of the fitted dose curve at least 0.9, where 1 is the maximum; inactive means score below 0.9.
The reply should be one of these categories: active, inactive

Just curious, what result did `CC(C)(C)c1ccccc1O` get here?
inactive

Can you look up the reported call for `O=C(N[C@H]1CN2CCC1CC2)c1ccc2c(c1)OCCO2` for me?
inactive

State the result this test recorded for `Oc1c(Cl)cc(Cl)cc1Cl` .
inactive

I would be grateful if you could indicate the recorded call for `Clc1cccc(Cl)c1` .
inactive

State the result this test recorded for `Oc1cc(Cl)c(Cl)cc1Cl` .
inactive

Look up the recorded call for `O=C(O)C1(c2ccc3c(c2)OC[C@H](Cc2ccc(-c4ccccc4)cc2)[C@H]3O)CCCC1` in this test.
active

Hello, I am checking results. What call was entered for `CCCCCCCCCCCCc1cccc(S(=O)(=O)O)c1` ?
inactive

Which outcome was entered for the compound `Cc1cc(C)cc(C)c1` in this test?
inactive

Hi team, can someone confirm the assay call for `CC(C)O.CC(C)O.OCCN(CCO)CCO.OCCN(CCO)CCO.[Ti]` ?
inactive

Any idea what this test logged for `OCCN(CCO)CCO` ?
inactive

GET /call?item= `CN(C)C(=S)S` returns the recorded outcome of this test.
inactive

---

- protocol-description: CCTE_Shafer_MEA_acute_per_network_burst_spike_number_std: CCTE's Neural Acute Assay for Standard Deviation of Number of Spikes in a Network Burst, Shafer Lab (AID 2284020);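 further: fitted for decrease in spike-number SD versus DMSO so actives lower it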
The source made the active and inactive calls. Rule for the calls: active = hit-call score of the fitted dose curve at least 0.9, where 1 is the maximum; inactive = score below 0.9.
Hello, when you answer, please use one of the following outcomes: YES (active), NO (inactive)

Name the outcome recorded for `CN(C)C(=S)S` in the assay.
NO

Any idea what this test logged for `CC1(C)[C@H](C(=O)O[C@H](C#N)c2cccc(Oc3ccccc3)c2)[C@@H]1/C=C(\Cl)C(F)(F)F` ?
YES

Recorded call for `OCCCCO` ?
NO

Kindly provide the recorded test outcome for the following molecule: CC(C)[C@@H](Nc1ccc(C(F)(F)F)cc1Cl)C(=O)OC(C#N)c1cccc(Oc2ccccc2)c1 (stereo partly specified)
YES

Query: recorded result category for `Oc1cc(Cl)c(Cl)cc1Cl` in this test
NO

Assay outcome for `N#Cc1cccnc1` : what was it?
NO

Test call, this molecule: `CCCCOC(=O)COC(=O)c1ccccc1C(=O)OCCCC`
NO

Which outcome was assigned to `CC(C)(C)c1ccccc1O` in this test?
NO

Which result was noted for this molecule in the test: `O=C(Cc1ccccc1)OCCc1ccccc1`
NO

Called result for `Cc1ccccc1OP(=O)(Oc1ccccc1C)Oc1ccccc1C`
NO

Please share the test call associated with `CS(=O)(=O)c1ccc(C(=O)C2C(=O)CCCC2=O)c(Cl)c1COCC(F)(F)F` .
NO

---

- Read-out: Vascular cell adhesion molecule 1 (VCAM1), VCAM1 (gene 7412)
- protocol-description: BSK_CASM3C_VCAM1: BioMAP Diversity Plus: CASM3C Assay for Vascular cell adhesion molecule 1 (VCAM1) Biomarker Activity (AID 2283055);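 further: VCAM-1 protein level quantified by ELISA on the cells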
- run-parameters: primary human coronary artery smooth muscle cells; actives raise or lower the signal
Active and inactive are the calls of the source. The calls were made as follows: active = hit-call score of the fitted dose curve at least 0.9, where 1 is the maximum; inactive = score below 0.9.
The reply should be one of these categories: active, inactive

GET /call?item= CC(C)=CC1C(C(=O)OCc2cccc(Oc3ccccc3)c2)C1(C)C (stereo unspecified) returns the recorded outcome of this test.
inactive

# outcome recorded in this test, key = `NC(=O)CCl`
inactive

Hi, sorry to bother you, what did the test record for `CCOC(=O)CCN(SN(C)C(=O)Oc1cccc2c1OC(C)(C)C2)C(C)C` ?
active

What call does the record list for `O=[N+]([O-])c1cccc2ccccc12` ?
inactive

Recorded test call requested for C=CC(Cl)CCl (stereo unspecified)
active

Status in this test for `CC(C)(C)c1cc([N+](=O)[O-])cc(C(C)(C)C)c1O` ?
inactive

---

- protocol-description: ATG_M_19_CIS: Attagene CIS-FACTORIAL HepG2 Assay for M19 Transcription Factor (Internal Marker) (AID 2282939)
- run-parameters: HepG2 Attagene CIS-FACTORIAL M19 internal marker reporter; actives raise or lower the signal
Active and inactive are the calls of the source. The calls were made as follows: active = hit-call score of the fitted dose curve at least 0.9, where 1 is the maximum; inactive = score below 0.9.
Use one of these outcomes when replying: 1 = active, 0 = inactive

For CC1CC(=O)O1 (stereo unspecified) , which call appears in the assay record?
0

Assay outcome for `CCC[CH2][Sn]([Cl])([Cl])[CH2]CCC` : what was it?
0

Please let me know the test result on file for OC(Cc1ccccc1Cl)(Cn1cncn1)C1(Cl)CC1 (stereo unspecified) .
0

// outcome(item) with item = `c1csc(-c2ccc(-c3cccs3)s2)c1`
0

Which outcome was entered for the molecule `c1ccc2c(c1)Oc1ccccc1O2` in this test?
0

For `c1cc[c]([Sb]([c]2ccccc2)[c]2ccccc2)cc1` , what call appears in the results of this test?
0

Which outcome was assigned to O=c1oc2ccccc2c(O)c1C(CC(O)c1ccc(-c2ccc(Br)cc2)cc1)c1ccccc1 (stereo unspecified) in this test?
0

Hi team, can someone confirm the assay call for `O=C(NC(=O)c1c(F)cccc1F)Nc1cc(Cl)c(F)c(Cl)c1F` ?
0

Fill in: this test's call for `O=[N+]([O-])c1cc([As](=O)(O)O)ccc1O` is ___
0

Could you check what this test reported for `c1ccc2sc(SNC3CCCCC3)nc2c1` ?
0

What is the recorded call for this molecule in the test? `Clc1cccc(Cl)c1Cl`
0

Recorded test outcome, item `CCOc1cc(C=O)ccc1O`
0

Can you look up the reported call for `C=CCc1ccccc1O` for me?
0

State the result this test recorded for `N#Cc1ccccc1N` .
0

Kindly provide the recorded test outcome for the following molecule: `O=C(Cl)OCCOCCOC(=O)Cl`
0

Outcome? `Cc1cc(C(C)(C)c2ccc(O)c(C)c2)ccc1O`
0

Kindly provide the recorded test outcome for the following molecule: `Cc1cc(Cl)ccc1O`
0

Which outcome was assigned to `CN(C1CCCCC1)C1CCCCC1` in this test?
0

Short answer needed: outcome of this test for `C=CCOC(F)(C(F)(F)F)C(F)(F)F` ?
0

Test call, this molecule: `NNCCO`
0

GET /call?item= `ClCCN1CCOCC1` returns the recorded outcome of this test.
0

Field: outcome | Entry: `O=S(=O)(c1ccc(Cl)cc1)c1cc(Cl)c(Cl)cc1Cl`
0

Hello, I am checking results. What call was entered for `Brc1ccc(Br)cc1` ?
0

Recorded test call requested for `C#C[C@]1(O)CC[C@H]2[C@@H]3CCC4=CC(=O)CC[C@]4(C)[C@H]3CC[C@@]21C`
0

Could you please tell me the result logged for `CC(=Cc1ccccc1)[N+](=O)[O-]` in this assay?
0

Query: recorded result category for `O=c1[nH]c(=O)n(Cl)c(=O)n1Cl` in this test
0

Could you please tell me the result logged for BrCC(Br)c1ccccc1 (stereo unspecified) in this assay?
0

Returns: the outcome recorded for CCCCCCCCCCCCCCC(Br)C(=O)O (stereo unspecified) in this assay.
1

Test call, this molecule: `O=S(=O)(C(Cl)(Cl)Cl)C(Cl)(Cl)Cl`
0

// param item: `O=C(CBr)c1ccc(O)cc1` ; yields the recorded call
0

# lookup: test call for `Oc1ccc(Cc2ccc(O)cc2)cc1`
0

---

- protocol-description: ATG_CRE_CIS: Attagene CIS-FACTORIAL HepG2 Assay for human cAMP Responsive Element (CRE) binding protein 3 (AID 2282926)
- run-parameters: HepG2 CRE cis-reporter, Attagene multiplexed mRNA; actives raise or lower the signal
Active and inactive are the calls of the source. Rule for the calls: active = hit-call score of the fitted dose curve at least 0.9, where 1 is the maximum; inactive = score below 0.9.
Please answer using one outcome listed in 1.0 = active, 0.0 = inactive

Tell me the recorded outcome of this test for CC(C)(C1CCC(O)CC1)C1CCC(O)CC1 (stereo unspecified) .
0.0

Could you kindly confirm the outcome this assay logged for `CC(C)N(C(=O)CCl)c1ccccc1` ?
0.0

// return assay outcome for `O=C(O)C1(c2ccc3c(c2)OC[C@H](Cc2ccc(-c4ccccc4)cc2)[C@H]3O)CCCC1`
0.0

Hi, sorry to bother you, what did the test record for `C[As+](C)(C)CC(=O)[O-]` ?
0.0

Query: recorded result category for `Cc1cc(C(F)(C(F)(F)F)C(F)(F)F)ccc1NC(=O)c1cccc(I)c1C(=O)NC(C)(C)CS(C)(=O)=O` in this test
0.0

// param item: `CCCCS(=O)(=O)Cl` ; yields the recorded call
0.0

Could you please tell me the result logged for `O=C(Nc1ccc(Br)cc1)c1cc(Br)cc(Br)c1O` in this assay?
0.0

What outcome does the record of this test show for `Nc1ccc(-c2ccccc2)cc1` ?
0.0

Status in this test for `O=C(CCl)Nc1ccccc1` ?
1.0

Could you please tell me the result logged for `COCCl` in this assay?
0.0

# fetch the recorded call for `Oc1cccc(-c2ccccc2)c1` here
0.0

Tell me the assay call for `Clc1cccc(Cl)c1Cl` please.
0.0

For `C=CCOC(F)(C(F)(F)F)C(F)(F)F` , what call appears in the results of this test?
0.0

What did this assay record as the result for `CCOP(=S)(OCC)Oc1ccc(Cl)cc1Cl` ?
0.0

Write down the call the test reported for this molecule. Item: `O=C(O)CC(O)(CC(=O)O)C(=O)O`
0.0

Short answer needed: outcome of this test for `O=C(NC(=O)c1c(F)cccc1F)Nc1cc(Cl)c(F)c(Cl)c1F` ?
0.0

Name the outcome recorded for `N#Cc1ccc(Cl)cc1` in the assay.
0.0

Record lookup: outcome of this test for `OC(c1ccc(Cl)cc1)(c1ccc(Cl)cc1)c1cccnc1` ?
0.0

State the result this test recorded for N#CCCC(Br)(C#N)CBr (stereo unspecified) .
1.0

Kindly provide the recorded test outcome for the following molecule: `CCCCCCCCCCCCCl`
0.0

Record request — test call for CCCSP(=S)(OCC)Oc1ccc(SC)cc1 (stereo unspecified)
0.0

Please let me know the test result on file for `O=NN1CCCCCC1` .
0.0

Assay result, entry `CC(C)(C)c1ccccc1O` — outcome?
1.0

For `N#Cc1ccccc1Cl` , what call appears in the results of this test?
0.0

Please share the test call associated with `CC1(C)[C@H](/C=C2\CCSC2=O)[C@@H]1C(=O)OCc1coc(Cc2ccccc2)c1` .
0.0

How was `C#CCO` classified in this test?
0.0

# outcome recorded in this test, key = `BrCCCCBr`
0.0

Called result for `Clc1cccc(Cl)c1`
0.0

Given `OCCCCO` , state the outcome it received in this test.
0.0

How was `CC(C)(C#N)N=NC(C)(C)C#N` classified in this test?
0.0

What was the test verdict on `Cc1cccc(N=Nc2ccc(N(C)C)cc2)c1` ?
0.0
